Biological target: T1, mouse serum albumin (mouse, UniProt P07724 25-608)
T1 construct: also called MSA
Assay: SPR, MSA immobilised
pKd: −log10 of the molar value. Where no end group is shown, it is not given here.
experimental_readout: pKd

binder: LAEAKVLALKELDKYGISNYYKNLINNAKTIEGVEALKEAIVAA (designed binder, not shown: small tags and cut ends, also: part of fusion protein, targeting moiety, linker, tag and order not given here) [Fusion proteins with albumin binding domain of SEQ ID NO: 25]
experimental_readout: pKd
readout_value: > 7.80

binder: LAEAKVLALKELDKYGISNYYKNLINNAKTIEGVEALKEAILAA (designed binder, not shown: small tags and cut ends, also: part of fusion protein, targeting moiety, linker, tag and order not given here) [Fusion proteins with albumin binding domain of SEQ ID NO: 26]
experimental_readout: pKd
readout_value: > 8.00

binder: LAEAKVLALKELDKYGISNDYKNLINNAKTIEGVEALKDAILAA (designed binder, not shown: small tags and cut ends, also: part of fusion protein, targeting moiety, linker, tag and order not given here) [Fusion proteins with albumin binding domain c49 (SEQ ID NO: 37)]
experimental_readout: pKd
readout_value: ≤ 7.00

binder: LAEAKVLALKELDKYGISNYGKNLINNAKTIEGVEALKDAILAA (designed binder, not shown: small tags and cut ends, also: part of fusion protein, targeting moiety, linker, tag and order not given here) [Fusion proteins with albumin binding domain c50 (SEQ ID NO: 38)]
experimental_readout: pKd
readout_value: ≤ 7.00
